Target: Muscarinic acetylcholine receptor M2 (Homo sapiens, UniProt P08172)
Sequence (P08172 whole entry): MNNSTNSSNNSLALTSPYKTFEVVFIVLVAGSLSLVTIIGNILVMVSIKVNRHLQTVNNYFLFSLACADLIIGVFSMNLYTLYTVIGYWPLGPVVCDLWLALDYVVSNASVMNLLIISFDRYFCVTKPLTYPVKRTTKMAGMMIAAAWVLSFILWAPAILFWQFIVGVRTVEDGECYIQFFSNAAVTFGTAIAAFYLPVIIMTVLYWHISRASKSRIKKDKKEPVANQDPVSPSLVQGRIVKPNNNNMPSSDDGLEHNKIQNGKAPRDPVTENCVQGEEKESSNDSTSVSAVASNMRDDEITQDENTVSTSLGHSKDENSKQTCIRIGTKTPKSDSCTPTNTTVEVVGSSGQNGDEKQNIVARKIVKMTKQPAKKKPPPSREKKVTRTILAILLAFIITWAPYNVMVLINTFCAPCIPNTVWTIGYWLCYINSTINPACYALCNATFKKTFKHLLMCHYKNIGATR
Counter-ions that a name gives are not always drawn.
valueType: Ki

Past entries and their recorded results:
molecule	experimentalTarget	valueType	reportedResult
CCc1nn(CCCN2CCN(c3cccc(Cl)c3)CC2)c(=O)n1CC	Muscarinic acetylcholine receptor M2 (Homo sapiens, UniProt P08172)	Ki	> 10000 nM
CC(NC(C)(C)C)C(=O)c1cccc(Cl)c1 (stereo not drawn) [BUPROPION HYDROCHLORIDE]	Muscarinic acetylcholine receptor M2 (Homo sapiens, UniProt P08172)	Ki	> 10000 nM

## Input Tell me the measured Ki of "COc1ccc(OC[C@H]2CN(C)CC[C@@H]2c2ccccc2)cc1" , please.
## Output 184 nM

## Input Try this molecule next: "CN(C)Cc1nnc2n1-c1ccc(Cl)cc1C(c1ccccc1)=NC2"
## Output > 10000 nM

## Input And "N[C@H]1CC[C@@H](c2ccc(Cl)c(Cl)c2)c2ccccc21" ?
## Output 1430 nM

## Input Try "CN(C)CCCN1c2ccccc2CCc2ccccc21" next.
## Output 46 nM

## Input Same again, this time with COc1ccc(C(CN(C)C)C2(O)CCCCC2)cc1 (stereo not drawn)
## Output > 10000 nM

## Input Also need "CN[C@@H]1CC[C@@H](c2ccc(Cl)c(Cl)c2)c2ccccc21" , thanks.
## Output 630 nM

###

Biological target: Alpha-1A adrenergic receptor (Homo sapiens, UniProt P35348)
Sequence (P35348 whole entry): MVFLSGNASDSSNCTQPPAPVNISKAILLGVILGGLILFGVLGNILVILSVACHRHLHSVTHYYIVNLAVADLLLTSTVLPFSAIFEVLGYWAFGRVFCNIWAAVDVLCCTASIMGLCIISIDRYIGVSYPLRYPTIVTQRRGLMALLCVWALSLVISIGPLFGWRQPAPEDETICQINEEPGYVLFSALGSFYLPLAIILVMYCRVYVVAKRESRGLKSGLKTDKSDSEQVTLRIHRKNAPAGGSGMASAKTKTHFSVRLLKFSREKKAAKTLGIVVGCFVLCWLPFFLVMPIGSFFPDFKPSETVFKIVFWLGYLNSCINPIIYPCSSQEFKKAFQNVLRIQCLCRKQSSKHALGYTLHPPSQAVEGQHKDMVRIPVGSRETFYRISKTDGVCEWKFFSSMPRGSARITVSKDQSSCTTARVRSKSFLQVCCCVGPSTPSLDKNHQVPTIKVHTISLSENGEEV
Counter-ions that a name gives are not always drawn.
valueType: Ki (µM)
Give just the number in µM; leave the unit off.

compound	Ki [µM]
CC(NC(C)(C)C)C(=O)c1cccc(Cl)c1 (stereo not drawn) [BUPROPION HYDROCHLORIDE]	4.2
COc1ccc(OC[C@H]2CN(C)CC[C@@H]2c2ccccc2)cc1	0.65
CN(CCCN1c2ccccc2CCc2ccccc21)CC(=O)c1ccc(Cl)cc1 [CAS_23047-25-8]	0.1
CN[C@@H]1CC[C@@H](c2ccc(Cl)c(Cl)c2)c2ccccc21	0.38
CCc1nn(CCCN2CCN(c3cccc(Cl)c3)CC2)c(=O)n1CC [NSC_40589]	0.038

Turning now to a further record.
## Input Recorded Ki for "CN(C)CCC=C1c2ccccc2CCc2ccccc21" , please?
## Output 0.024

###

pKi: −log10 of the molar value. Counter-ions that a name gives are not always drawn.
Target or system Alpha-2A adrenergic receptor (Homo sapiens, UniProt P08913): recorded pKi listed per item.

Known pKi results, listed for orientation:
molecule	experimentalTarget	pKi
CN(C)Cc1nnc2n1-c1ccc(Cl)cc1C(c1ccccc1)=NC2	Alpha-2A adrenergic receptor (Homo sapiens, UniProt P08913)	< 5.00
COc1ccc(C(CN(C)C)C2(O)CCCCC2)cc1 (stereo not drawn)	Alpha-2A adrenergic receptor (Homo sapiens, UniProt P08913)	< 5.00

Consider the record given below.
## Input // lookup pKi for CC(NC(C)(C)C)C(=O)c1cccc(Cl)c1 (stereo not drawn) [BUPROPION HYDROCHLORIDE]
## Output < 5.00
